- System: Staphylococcus aureus
- ASSAY_COMMENT: Antibiotic activity against methicillin-sensitive Staphylococcus aureus ATCC 29213 assessed as inhibition of bacterial growth incubated for 16 hrs in presence of 0.002% polysorbate 80
- Format: functional
OUTCOME_MEASURE: MIC (µg/mL)

>>> endpoint_value("CC[C@H](C)[C@H](NC(=O)[C@@H](Cc1ccccc1)NC)C(=O)N[C@@H](CO)C(=O)N[C@H](CCC(N)=O)C(=O)N[C@@H](C(=O)N[C@H](C(=O)OC[C@H](N)C(=O)N[C@H]1C(=O)N[C@@H](C)C(=O)N[C@@H](C[C@H]2CNC(=N)N2)C(=O)N[C@@H]([C@@H](C)CC)C(=O)O[C@H]1C)[C@@H](C)CC)[C@@H](C)CC")
0.5

Values were extracted from ChEMBL document CHEMBL5584273.
